tgt: StGyrA-CTD R612A (Salmonella enterica serovar Typhi CT18, UniProt A0A1U7FVV6 530-840, R612A)
measurementNotes: fluorescence binding; 1 mM Mg2+; text gives 220-250 nM for other mutants
measurementParameters: protein: recombinant; tags: C-terminal 6xHis; blunt

binder | Kd
FAM-37 bp DNA (dsDNA) DNA 1: TAAAGTCTAGAGACACGCATAGTCAATGACGGAGTTA DNA 2: TAACTCCGTCATTGACTATGCGTGTCTCTAGACTTTA | 135 nM
